- TARGET ENTITY: aminopeptidase B (Rattus norvegicus)
- Sequence (O09175 1-650): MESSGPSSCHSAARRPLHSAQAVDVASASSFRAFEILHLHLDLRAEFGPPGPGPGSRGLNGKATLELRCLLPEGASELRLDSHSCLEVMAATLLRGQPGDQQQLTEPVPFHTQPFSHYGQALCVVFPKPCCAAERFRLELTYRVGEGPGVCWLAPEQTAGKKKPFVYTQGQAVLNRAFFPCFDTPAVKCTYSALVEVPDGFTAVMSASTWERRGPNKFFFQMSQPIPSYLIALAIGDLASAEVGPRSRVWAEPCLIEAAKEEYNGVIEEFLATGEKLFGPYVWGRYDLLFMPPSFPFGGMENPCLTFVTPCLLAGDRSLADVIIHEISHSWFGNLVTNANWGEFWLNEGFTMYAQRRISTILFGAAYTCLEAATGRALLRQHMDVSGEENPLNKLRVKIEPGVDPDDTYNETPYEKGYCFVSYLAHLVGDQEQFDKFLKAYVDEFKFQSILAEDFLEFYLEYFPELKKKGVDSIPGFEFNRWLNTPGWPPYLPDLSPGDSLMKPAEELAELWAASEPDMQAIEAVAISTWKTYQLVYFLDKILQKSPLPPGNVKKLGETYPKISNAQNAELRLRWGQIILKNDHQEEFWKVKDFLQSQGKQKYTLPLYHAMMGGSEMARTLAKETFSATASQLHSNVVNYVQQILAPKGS
pIC50: −log10 of the molar value.
ASSAY ENDPOINT: pIC50

> print(dat)
                           structure.smiles  readout.number
1  CC(C)C[C@H](NC(=O)[C@@H](O)[C@H](N)Cc1ccccc1)C(=O)O            6.75

Each recorded value in this set is attributed to patent US4029547A.
